Test Details: parental HEK293 cell activity, no Kir2.1 – FluxOR thallium flux, duplicate, single concentration, counter-screen for Kir2.1 inhibitor project, confirmation (AID 2105)
Stated Conditions: parental HEK293 cells, FluxOR thallium flux fluorescence, at 10 µM; 0% = unstimulated blank wells
Some of the results follow. Calls of active or inactive are those of the source.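 Rule for the calls: active = dye signal at least 3 control SD above or below untreated wells in both duplicates, raw fluorescence within 3, either direction; inactive = the rest.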
Select the matching outcome among YES = active, NO = inactive

Check out these entries, answers already filled in.
COc1cccc(CN(C)CC2CCCN(CCc3ccc(Cl)cc3)C2)c1OC (stereo not given)    NO
CC(=O)N(C1=C(Cl)C(=O)c2ccccc2C1=O)c1ccc(C(=O)O)cc1    NO
Oc1c(Cl)cc(Cl)cc1/C=N/c1ncn[nH]1    NO

**Q:** What is the recorded call for this molecule in the test? CC1(c2ccccc2Cl)NC(=O)N(CC(=O)NC(=O)NCc2ccco2)C1=O (stereo not given)
**A:** NO

**Q:** What is the recorded call for this molecule in the test? CCCn1c(C2CCCN2c2nc(-c3ccc(C)cc3)cs2)nc2cc(Cl)c(N3CCCCC3)cc21 (stereo not given)
**A:** NO

**Q:** What is the recorded call for this molecule in the test? CCCCNC(=O)Nc1c(C)cc(SC#N)cc1C
**A:** NO

**Q:** What is the recorded call for this molecule in the test? O=C(CCl)N(Cc1cccc([N+](=O)[O-])c1)c1cccc(Cl)c1
**A:** NO

**Q:** What is the recorded call for this molecule in the test? Cc1cc2cc3c(cc2nc1SCC(=O)Nc1c(C)cccc1C)CCC3
**A:** NO

**Q:** What is the recorded call for this molecule in the test? CCC1(C)Cc2c(sc3[nH]c(=S)n(Cc4ccccc4)c(=O)c23)CO1 (stereo not given)
**A:** YES

**Q:** What is the recorded call for this molecule in the test? N=c1c2c(-c3ccccc3)c(-c3ccccc3)n(Cc3ccccc3)c2ncn1CCCO
**A:** NO

----------
Test system: TRPC4 (mouse), co-expressed with 5HT1a in HEK293
Test Details: enhancement of serotonin-evoked TRPC4 response – cell-based, second counter screen, HEK293 TRPC4/5HT1a, Fluo-4, counter-screen for TRPC4 potentiator project, confirmation (AID 434979)
Stated Conditions: Fluo-4 calcium flux, at 10 µM, serotonin added at its EC20 dose
Active and inactive are the calls of the source.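 How the source made its calls: active means signal rise over 3 SD above mean of control wells given weak agonist, in both repeats and first screen; inactive means the rest.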
Select the matching outcome among active, inactive

**Q:** What is the recorded call for this compound in the test? Nc1cc(N2CCCCC2)c([N+](=O)[O-])cc1Cl
**A:** inactive

**Q:** What is the recorded call for this compound in the test? Cc1cc(OCCn2ccnc2)cc(C)c1Cl
**A:** inactive

**Q:** What is the recorded call for this compound in the test? C=CCn1c(=N)n(CC(O)COc2ccccc2OC)c2ccccc21 (stereo not drawn)
**A:** inactive

**Q:** What is the recorded call for this compound in the test? CC(C)Cn1c(CN2CCN(C)C(CCO)C2)nc2ccccc21 (stereo not drawn)
**A:** inactive

**Q:** What is the recorded call for this compound in the test? CCOc1ccc(-n2cnnn2)cc1S(=O)(=O)NCc1ccccc1
**A:** inactive

----------
Tested on: TRPC4 (mouse), co-expressed with 5HT1a in HEK293
Test Details: enhancement of serotonin-evoked TRPC4 response – cell-based, second counter screen, HEK293 TRPC4/5HT1a, Fluo-4, counter-screen for TRPC4 potentiator project, confirmation (AID 434979)
Stated Conditions: Fluo-4 calcium flux, at 10 µM, serotonin added at its EC20 dose
The source made the active and inactive calls.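 Rule for the calls: active = signal rise over 3 SD above mean of control wells given weak agonist, in both repeats and first screen; inactive = the rest.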
Select the matching outcome among active, inactive

Check out these entries, answers already filled in.
OC1(c2ccc(Br)cc2)CN(c2ccccc2)C2=[N+]1CCS2 (stereo unspecified)    inactive
C=CCOc1ccc(C2CC(C)=NN2c2ccccc2)cc1 (stereo unspecified)    inactive
COC(=O)C1=C(CCc2ccccc2)NC(=O)NC1c1ccc(Cl)cc1 (stereo unspecified)    active
CC1CC(C)CN(CCCNC(=O)C2CCCN(c3ncnc4c3nc3n4CCCCC3)C2)C1 (stereo unspecified)    active

**Q:** What is the recorded call for this molecule in the test? CN1CCN(C(=O)c2cccn(Cc3c(Cl)cccc3Cl)c2=O)CC1
**A:** inactive

**Q:** What is the recorded call for this molecule in the test? COCC1CCN(Cc2cn(-c3ccccc3F)nc2-c2cc(C)sc2C)CC1
**A:** inactive

**Q:** What is the recorded call for this molecule in the test? O=C(COC(=O)c1ccccn1)Nc1nc(-c2ccccc2)cs1
**A:** inactive

**Q:** What is the recorded call for this molecule in the test? O=C(Cn1nc(-c2ccccc2)ccc1=O)NCCN1CCN(Cc2ccccc2)CC1
**A:** active

**Q:** What is the recorded call for this molecule in the test? Cc1ccc(C(=O)c2no[n+]([O-])c2C(=O)c2ccc(C)cc2)cc1
**A:** active

**Q:** What is the recorded call for this molecule in the test? COC(=O)CC(NC(=S)NC(=O)c1ccccc1)c1ccc(Br)cc1 (stereo unspecified)
**A:** active

**Q:** What is the recorded call for this molecule in the test? C=CCSc1nc2c(c(=O)[nH]c(=O)n2C)n1C/C=C(/C)Cl
**A:** inactive

----------
Experimental System: Short transient receptor potential channel 4 (Mus musculus)
Test Details: calcium flux activators in TRPC4/5HT1a cells, counter-screen for TRPC4 activator project, cell-based, second counter screen, HEK293 TRPC4/5HT1a, Fluo-4 (AID 434977)
Stated Conditions: Fluo-4 calcium flux, at 10 µM
Calls of active or inactive are those of the source.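 The calls were made as follows: active = calcium signal rise above buffer-control mean plus 5 SD in both duplicates, and also a hit in the primary screen; inactive = the rest.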
Select the matching outcome among YES = active, NO = inactive

Check out these entries, answers already filled in.
O=[N+]([O-])c1cc([N+](=O)[O-])c2oc(-c3ccccc3)c(Br)c2c1O    NO
COCCn1c(SCc2cc(C(C)=O)ccc2OC)nc2cc(Cl)ccc2c1=O    NO
Cc1cc(/C=N/NC(=O)c2cccc([N+](=O)[O-])c2)c(C)n1-c1ccc(Cl)cc1Cl    NO
Oc1c(Br)cc(Br)c(/C=N/n2c(-c3ccccc3)n[nH]c2=S)c1Br    NO

Now take the following compound into account.
**Q:** What is the recorded call for this compound in the test? CCN(CC)CCN(C(=O)c1ccccc1OC)c1nc2ccc(F)cc2s1
**A:** NO

----------
Experimental System: Short transient receptor potential channel 4 (Mus musculus)
Test Details: calcium flux activators in TRPC4/5HT1a cells, counter-screen for TRPC4 activator project, cell-based, second counter screen, HEK293 TRPC4/5HT1a, Fluo-4 (AID 434977)
Stated Conditions: Fluo-4 calcium flux, at 10 µM
Active and inactive are the calls of the source.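 How the source made its calls: active means calcium signal rise above buffer-control mean plus 5 SD in both duplicates, and also a hit in the primary screen; inactive means the rest.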
Select the matching outcome among active, inactive

Check out these entries, answers already filled in.
NC(=O)c1nsc(C(=O)N(Cc2ccco2)C(C(=O)NCc2ccccc2)c2ccc(O)cc2)c1N (stereo not drawn)    inactive
Cc1sc2ncnc(NCC(c3ccco3)N3CCCC3)c2c1C (stereo not drawn)    active
Cc1cc(C)cc(N/C(N)=N/c2nc(C)cc(C)n2)c1    inactive

**Q:** What is the recorded call for this compound in the test? COc1ccc(C(CNC(=O)Cc2ccc(-c3ccccc3)cc2)N(C)C)cc1 (stereo not drawn)
**A:** inactive

**Q:** What is the recorded call for this compound in the test? O=C(Nc1ccccc1)N1CCN2C(=O)c3ccccc3C12c1ccccc1 (stereo not drawn)
**A:** inactive

**Q:** What is the recorded call for this compound in the test? Cc1cc(Nc2ccccc2O)c2ccccc2n1
**A:** inactive

**Q:** What is the recorded call for this compound in the test? CCOC(=O)CSc1nc2ccccc2c(=O)n1CC1CCCC1
**A:** inactive

**Q:** What is the recorded call for this compound in the test? COc1ccc(C(CNC(=O)CCOc2ccccc2)N(C)C)cc1 (stereo not drawn)
**A:** inactive

**Q:** What is the recorded call for this compound in the test? COc1ccc(C(CNC(=O)c2cccc(NS(=O)(=O)c3ccc(Br)cc3)c2)N(C)C)cc1 (stereo not drawn)
**A:** active

**Q:** What is the recorded call for this compound in the test? CCOC(=O)C1CCN(c2nc3ccccc3nc2C(C#N)C(=O)OCCOC)CC1 (stereo not drawn)
**A:** inactive

**Q:** What is the recorded call for this compound in the test? CCCn1c(=O)c(C(=O)NCC2CCCO2)c(O)c2ccccc21 (stereo not drawn)
**A:** inactive

**Q:** What is the recorded call for this compound in the test? CN(C)CCNc1ccc(Cl)cc1[N+](=O)[O-]
**A:** inactive

**Q:** What is the recorded call for this compound in the test? c1ccc(C2(CN3CCNC[C@H]3Cc3cccc4ccccc34)CC2)cc1
**A:** active

**Q:** What is the recorded call for this compound in the test? Cc1cc(Cl)ccc1OC(C)C(=O)Nc1ccccc1N1CCOCC1 (stereo not drawn)
**A:** inactive

**Q:** What is the recorded call for this compound in the test? O=S(=O)(c1ccc(Cl)cc1Br)N1CCCCC1
**A:** inactive

**Q:** What is the recorded call for this compound in the test? Cc1[nH]n2c(=O)c3c(nc2c1-c1ccccc1)CCC3
**A:** inactive

**Q:** What is the recorded call for this compound in the test? COC(=O)c1ccc(C(=S)NCC2(N(C)C)CCCCC2)cc1
**A:** active

**Q:** What is the recorded call for this compound in the test? Cn1cc(-c2nc3ccccc3[nH]2)c2ccccc21
**A:** inactive

Values from PubChem BioAssay
